target under test: Proto-oncogene tyrosine-protein kinase Src (Homo sapiens)
Sequence (P12931 2-536 limits assumed): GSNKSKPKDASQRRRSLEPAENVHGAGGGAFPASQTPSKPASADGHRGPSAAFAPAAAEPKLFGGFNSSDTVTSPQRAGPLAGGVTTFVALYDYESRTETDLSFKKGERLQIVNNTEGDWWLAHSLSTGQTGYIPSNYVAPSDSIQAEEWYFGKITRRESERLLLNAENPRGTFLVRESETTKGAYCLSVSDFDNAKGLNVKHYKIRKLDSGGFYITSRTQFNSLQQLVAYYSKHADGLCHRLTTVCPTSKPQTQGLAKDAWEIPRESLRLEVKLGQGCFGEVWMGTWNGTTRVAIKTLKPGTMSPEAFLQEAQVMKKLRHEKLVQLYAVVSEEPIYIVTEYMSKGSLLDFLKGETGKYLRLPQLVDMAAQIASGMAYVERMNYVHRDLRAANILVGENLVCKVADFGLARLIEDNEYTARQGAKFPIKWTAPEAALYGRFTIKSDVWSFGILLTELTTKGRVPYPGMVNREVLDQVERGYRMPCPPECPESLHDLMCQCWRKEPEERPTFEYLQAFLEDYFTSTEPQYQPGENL
measured property: IC50

For the compound C[C@@H](c1cc2cccnc2cc1F)n1cnc2ncc(-c3cnn(C)c3)nc21 , what IC50 is on record?
> 30 µM

====

target under test: UniProt:P29317
Sequence (P29317 whole entry): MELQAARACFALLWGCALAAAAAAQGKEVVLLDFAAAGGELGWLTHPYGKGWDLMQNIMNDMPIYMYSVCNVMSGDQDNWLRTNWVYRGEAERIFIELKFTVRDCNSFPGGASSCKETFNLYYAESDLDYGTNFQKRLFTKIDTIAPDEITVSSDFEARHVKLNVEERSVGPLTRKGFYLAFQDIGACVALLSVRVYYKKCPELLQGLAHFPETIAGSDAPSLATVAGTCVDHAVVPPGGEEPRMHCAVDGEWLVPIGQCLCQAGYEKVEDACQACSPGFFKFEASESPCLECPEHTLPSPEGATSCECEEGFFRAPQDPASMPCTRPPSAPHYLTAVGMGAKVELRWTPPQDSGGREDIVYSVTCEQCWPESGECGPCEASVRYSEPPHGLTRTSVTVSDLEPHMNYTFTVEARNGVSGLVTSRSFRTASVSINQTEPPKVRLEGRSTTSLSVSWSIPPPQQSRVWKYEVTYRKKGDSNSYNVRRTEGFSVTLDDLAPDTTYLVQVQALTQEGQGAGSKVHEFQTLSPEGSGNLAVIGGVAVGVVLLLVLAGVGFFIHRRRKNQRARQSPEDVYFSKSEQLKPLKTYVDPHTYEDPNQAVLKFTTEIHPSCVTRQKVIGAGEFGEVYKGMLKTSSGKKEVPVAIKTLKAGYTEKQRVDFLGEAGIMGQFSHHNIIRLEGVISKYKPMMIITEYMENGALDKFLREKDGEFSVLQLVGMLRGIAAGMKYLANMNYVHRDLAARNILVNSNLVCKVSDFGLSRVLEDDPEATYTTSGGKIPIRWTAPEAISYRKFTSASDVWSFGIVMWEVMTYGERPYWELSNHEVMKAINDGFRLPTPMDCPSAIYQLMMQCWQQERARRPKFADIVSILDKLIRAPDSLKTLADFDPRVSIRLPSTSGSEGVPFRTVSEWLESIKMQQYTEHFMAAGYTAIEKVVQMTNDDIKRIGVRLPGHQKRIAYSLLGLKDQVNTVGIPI
measured property: IC50

// fetch UniProt:P29317 IC50 for C[C@@H](c1cc2cccnc2cc1F)n1cnc2ncc(-c3cnn(C)c3)nc21
> 30 µM

====

# Papp A→B at 1.5 h, 10 µM per record follows
procedure text: in vitro
particulars: human, Caco-2
Description: Apparent permeability from apical to basolateral side in Caco2 cells at 1 to 10 uM incubated for 90 mins by LC-MS/MS analysis
Give just the numeric value; ×10⁻⁶ cm/s need not be written.

C[C@@H](c1cc2cccnc2cc1F)n1cnc2ncc(-c3ccc(C(N)=O)c(F)c3)nc21 ... 43.7
C[C@@H](c1cc2cccnc2cc1F)n1cnc2ncc(-c3cnn(C)c3)nc21 ... 46.6
CC(=O)O[C@H]1C(=O)[C@@]2(C)[C@H]([C@H](OC(=O)c3ccccc3)[C@]3(O)C[C@H](OC(=O)[C@H](O)[C@@H](NC(=O)c4ccccc4)c4ccccc4)C(C)=C1C3(C)C)[C@]1(OC(C)=O)CO[C@@H]1C[C@@H]2O ... 1.46
O=C1OC2(c3ccc([O-])cc3Oc3cc([O-])ccc32)c2ccccc21.[Na+].[Na+] ... 2.72

Alright, here's another compound for you.
For the compound CC(c1cc2cccnc2cc1F)n1cnc2ncc(-c3ccc(C(N)=O)c(F)c3)nc21 (stereo not given) , what Papp A→B at 1.5 h, 10 µM is on record?
82.3

====

procedure text: in vitro
particulars: human, Caco-2
# Papp A→B at 1.5 h, 10 µM per record follows
Give just the numeric value; ×10⁻⁶ cm/s need not be written.

Here are 2 compounds together with their reported answers.
CNC(=O)c1ccc(-c2cnc3ncn(C(C)c4cc5cccnc5cc4F)c3n2)cc1F (stereo not drawn) ... 39.8
CC(c1cc2cccnc2cc1F)n1cnc2ncc(-c3cnn(C)c3)nc21 (stereo not drawn) ... 39.3

For the compound CC(C)NCC(O)COc1cccc2ccccc12 (stereo not drawn) [PROPRANOLOL] , what Papp A→B at 1.5 h, 10 µM is on record?
21.5

====

procedure text: Intrinsic clearance in rat liver microsomes assessed per mg of protein at 1 uM preincubated for 5 mins followed by NADPH addition measured after 5 to 30 mins by LC-MS/MS analysis
Assay type: ADME, Microsome
particulars: read-out: CLH
# note: exactly 80 µL/min/mg is not below, so it is FALSE; use TRUE for microsomal CLint at 1 µM strictly under it

Completed entries (count: 3):
C[C@@H](c1cc2cccnc2cc1F)n1cnc2ncc(-c3ccc(C(N)=O)c(F)c3)nc21 ... FALSE
CC(c1c(F)cc2ncccc2c1F)n1cnc2ncc(-c3ccncc3)nc21 (stereo unspecified) ... TRUE
COC(=O)c1ccc(-c2cnc3ncn(C(C)c4c(F)cc5ncccc5c4F)c3n2)cc1F (stereo unspecified) ... FALSE

Could you please tell me whether microsomal CLint at 1 µM recorded for C[C@@H](c1cc2cccnc2cc1F)n1cnc2ncc(-c3cnn(C)c3)nc21 is less than 80 µL/min/mg?
TRUE

What about CC(c1c(F)cc2ncccc2c1F)n1cnc2ncc(-c3cnc4ccccc4c3)nc21 (stereo unspecified) ?
FALSE

What about CC(c1c(F)cc2ncccc2c1F)n1cnc2ncc(-c3cnn(C)c3)nc21 (stereo unspecified) ?
TRUE

What about CC(c1cc2cccnc2cc1F)n1cnc2ncc(-c3ccc(C(N)=O)c(F)c3)nc21 (stereo unspecified) ?
FALSE

What about COC(=O)c1ccc(-c2cnc3ncn(C(C)c4cc5cccnc5cc4F)c3n2)cc1F (stereo unspecified) ?
FALSE

What about CC(c1c(F)cc2ncccc2c1F)n1cnc2ncc(-c3cnn(CCO)c3)nc21 (stereo unspecified) ?
TRUE

What about CNC(=O)c1ccc(-c2cnc3ncn(C(C)c4cc5cccnc5cc4F)c3n2)cc1F (stereo unspecified) ?
FALSE

What about CC(c1cc2cccnc2cc1F)n1cnc2ncc(-c3cnn(C)c3)nc21 (stereo unspecified) ?
TRUE

====

target under test: Cytochrome P450 2C19 (Homo sapiens, UniProt P33261)
Sequence (P33261 whole entry): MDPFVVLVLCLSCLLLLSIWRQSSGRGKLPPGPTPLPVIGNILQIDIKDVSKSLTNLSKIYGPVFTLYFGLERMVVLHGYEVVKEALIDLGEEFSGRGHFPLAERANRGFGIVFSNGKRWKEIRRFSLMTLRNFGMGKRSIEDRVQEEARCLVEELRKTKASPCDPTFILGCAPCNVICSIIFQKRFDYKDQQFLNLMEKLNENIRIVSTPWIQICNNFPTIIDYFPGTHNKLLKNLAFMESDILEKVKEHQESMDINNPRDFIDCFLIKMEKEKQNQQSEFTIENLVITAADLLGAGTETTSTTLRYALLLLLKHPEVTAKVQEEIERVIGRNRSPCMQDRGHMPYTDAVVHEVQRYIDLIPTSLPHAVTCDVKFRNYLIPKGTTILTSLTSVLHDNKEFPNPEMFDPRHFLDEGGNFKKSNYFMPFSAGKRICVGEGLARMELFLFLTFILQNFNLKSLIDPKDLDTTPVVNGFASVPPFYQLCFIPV
procedure text: Inhibition of CYP2C19 in human liver microsomes at 10 uM using tranylcypromine as […] preincubated for 5 mins followed by NADPH addition measured after 20 mins by LC-MS/MS analysis
Format: ADME
measured property: inhibition (INH)

CC(c1c(F)cc2ncccc2c1F)n1cnc2ncc(-c3ccncc3)nc21 (stereo not given) ... Active
CC(c1c(F)cc2ncccc2c1F)n1cnc2ncc(-c3cnn(C)c3)nc21 (stereo not given) ... Active
CNC(=O)c1ccc(-c2cnc3ncn(C(C)c4cc5cccnc5cc4F)c3n2)cc1F (stereo not given) ... Active
CC(c1c(F)cc2ncccc2c1F)n1cnc2ncc(-c3cnc4ccccc4c3)nc21 (stereo not given) ... Active

====

target under test: Proto-oncogene tyrosine-protein kinase receptor Ret (Homo sapiens, UniProt P07949)
Sequence (P07949 whole entry): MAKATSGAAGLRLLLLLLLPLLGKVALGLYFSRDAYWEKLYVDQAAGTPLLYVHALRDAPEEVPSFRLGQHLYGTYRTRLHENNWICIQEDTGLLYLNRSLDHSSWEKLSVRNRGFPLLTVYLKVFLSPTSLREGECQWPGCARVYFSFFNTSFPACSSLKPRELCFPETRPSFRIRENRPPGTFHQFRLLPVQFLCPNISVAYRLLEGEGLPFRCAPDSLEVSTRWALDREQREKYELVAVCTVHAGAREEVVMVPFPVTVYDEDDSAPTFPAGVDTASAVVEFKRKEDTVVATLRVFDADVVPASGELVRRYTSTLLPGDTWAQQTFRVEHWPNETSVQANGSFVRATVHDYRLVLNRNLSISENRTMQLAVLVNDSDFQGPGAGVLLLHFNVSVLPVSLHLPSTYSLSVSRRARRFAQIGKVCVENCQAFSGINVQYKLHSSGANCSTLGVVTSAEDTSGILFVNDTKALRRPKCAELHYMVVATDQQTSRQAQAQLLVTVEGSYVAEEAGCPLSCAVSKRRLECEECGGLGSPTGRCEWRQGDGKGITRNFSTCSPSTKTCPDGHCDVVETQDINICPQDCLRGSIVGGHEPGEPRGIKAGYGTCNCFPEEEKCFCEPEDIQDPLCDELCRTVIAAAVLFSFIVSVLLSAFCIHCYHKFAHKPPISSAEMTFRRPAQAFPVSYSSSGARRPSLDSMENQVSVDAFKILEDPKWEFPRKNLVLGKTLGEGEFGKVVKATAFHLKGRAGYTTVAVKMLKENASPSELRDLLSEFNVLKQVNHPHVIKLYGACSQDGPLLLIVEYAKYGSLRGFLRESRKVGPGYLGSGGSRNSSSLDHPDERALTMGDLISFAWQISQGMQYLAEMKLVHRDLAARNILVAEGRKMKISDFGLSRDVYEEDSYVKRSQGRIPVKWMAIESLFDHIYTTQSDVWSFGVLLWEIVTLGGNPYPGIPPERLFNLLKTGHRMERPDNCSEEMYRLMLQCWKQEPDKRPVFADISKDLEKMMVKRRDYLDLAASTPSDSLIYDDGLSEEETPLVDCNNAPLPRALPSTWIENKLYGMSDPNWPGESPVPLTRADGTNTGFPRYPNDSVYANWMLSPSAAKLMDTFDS
measured property: IC50

// fetch Proto-oncogene tyrosine-protein kinase receptor Ret (Homo sapiens, UniProt P07949) IC50 for C[C@@H](c1cc2cccnc2cc1F)n1cnc2ncc(-c3cnn(C)c3)nc21
> 30 µM

====

# IC50 per record follows
target under test: Hepatocyte growth factor receptor (Homo sapiens, UniProt P08581)
Sequence (P08581 whole entry): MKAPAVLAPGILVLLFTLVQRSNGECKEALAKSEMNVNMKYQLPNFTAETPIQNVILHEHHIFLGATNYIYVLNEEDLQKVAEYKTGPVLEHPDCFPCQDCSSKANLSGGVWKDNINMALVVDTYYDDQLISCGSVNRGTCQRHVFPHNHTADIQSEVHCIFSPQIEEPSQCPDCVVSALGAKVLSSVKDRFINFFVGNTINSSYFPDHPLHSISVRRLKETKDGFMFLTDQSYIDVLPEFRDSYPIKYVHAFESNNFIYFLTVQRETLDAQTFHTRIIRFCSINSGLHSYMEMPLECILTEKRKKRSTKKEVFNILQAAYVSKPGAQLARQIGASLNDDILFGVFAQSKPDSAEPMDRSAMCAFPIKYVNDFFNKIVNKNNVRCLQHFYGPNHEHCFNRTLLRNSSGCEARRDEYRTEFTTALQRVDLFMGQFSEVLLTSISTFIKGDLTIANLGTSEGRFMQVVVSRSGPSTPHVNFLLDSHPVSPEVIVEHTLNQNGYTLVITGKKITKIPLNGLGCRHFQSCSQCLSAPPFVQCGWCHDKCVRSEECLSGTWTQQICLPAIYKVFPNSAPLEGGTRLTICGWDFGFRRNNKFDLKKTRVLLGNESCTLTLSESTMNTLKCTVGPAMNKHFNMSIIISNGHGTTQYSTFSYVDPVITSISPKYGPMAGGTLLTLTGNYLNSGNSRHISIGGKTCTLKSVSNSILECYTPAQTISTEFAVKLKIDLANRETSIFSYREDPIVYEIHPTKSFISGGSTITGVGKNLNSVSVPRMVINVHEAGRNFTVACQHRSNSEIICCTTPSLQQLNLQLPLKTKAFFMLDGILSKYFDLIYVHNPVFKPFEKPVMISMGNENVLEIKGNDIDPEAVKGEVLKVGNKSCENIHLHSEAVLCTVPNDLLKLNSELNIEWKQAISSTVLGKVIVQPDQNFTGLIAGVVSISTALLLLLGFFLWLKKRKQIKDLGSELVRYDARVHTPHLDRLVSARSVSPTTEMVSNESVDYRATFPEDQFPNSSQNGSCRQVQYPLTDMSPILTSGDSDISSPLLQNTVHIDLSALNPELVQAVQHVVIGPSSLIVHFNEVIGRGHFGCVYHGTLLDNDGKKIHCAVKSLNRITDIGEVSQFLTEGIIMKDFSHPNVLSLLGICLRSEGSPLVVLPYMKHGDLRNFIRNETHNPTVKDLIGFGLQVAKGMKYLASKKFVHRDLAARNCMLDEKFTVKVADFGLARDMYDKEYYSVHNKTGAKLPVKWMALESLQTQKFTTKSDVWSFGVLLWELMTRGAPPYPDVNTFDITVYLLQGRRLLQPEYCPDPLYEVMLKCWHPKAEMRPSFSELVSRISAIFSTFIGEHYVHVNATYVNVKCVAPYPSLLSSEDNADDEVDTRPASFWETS
Give just the numeric value; nM need not be written.

Here are 5 molecules together with their reported answers.
COC(=O)c1ccc(-c2cnc3ncn(C(C)c4c(F)cc5ncccc5c4F)c3n2)cc1F (stereo not given) ... 4.9
C1=C(c2cnc3ncn(Cc4ccc5ncccc5c4)c3n2)CCNC1 ... 33.2
CC(NC/N=C/c1cn[nH]c1)c1ccc2ncccc2c1 (stereo not given) ... 11.4
C[C@H](c1cc2cccnc2cc1F)n1cnc2ncc(-c3cnn(C)c3)nc21 ... 1.94
CC(c1cc2cccnc2cc1F)n1cnc2ncc(-c3cnn(C)c3)nc21 (stereo not given) ... 1.6

For the molecule CCC(c1ccc2ncccc2c1F)n1cnc2ncc(-c3ccc(C(=O)OC)c(F)c3)nc21 (stereo not given) , what IC50 is on record?
39.2

What about CCC(c1cc2cccnc2cc1F)n1cnc2ncc(-c3cnn(CCO)c3)nc21 (stereo not given) ?
9.3

What about Nc1ccc(-c2cnc3ncn(Cc4ccc5ncccc5c4)c3n2)cc1 ?
12.4

What about OCCn1cc(-c2cnc3ncn(Cc4ccc5ncccc5c4)c3n2)cn1 ?
15.9

====

target under test: Cytochrome P450 3A4 (Homo sapiens)
Sequence (P08684 whole entry): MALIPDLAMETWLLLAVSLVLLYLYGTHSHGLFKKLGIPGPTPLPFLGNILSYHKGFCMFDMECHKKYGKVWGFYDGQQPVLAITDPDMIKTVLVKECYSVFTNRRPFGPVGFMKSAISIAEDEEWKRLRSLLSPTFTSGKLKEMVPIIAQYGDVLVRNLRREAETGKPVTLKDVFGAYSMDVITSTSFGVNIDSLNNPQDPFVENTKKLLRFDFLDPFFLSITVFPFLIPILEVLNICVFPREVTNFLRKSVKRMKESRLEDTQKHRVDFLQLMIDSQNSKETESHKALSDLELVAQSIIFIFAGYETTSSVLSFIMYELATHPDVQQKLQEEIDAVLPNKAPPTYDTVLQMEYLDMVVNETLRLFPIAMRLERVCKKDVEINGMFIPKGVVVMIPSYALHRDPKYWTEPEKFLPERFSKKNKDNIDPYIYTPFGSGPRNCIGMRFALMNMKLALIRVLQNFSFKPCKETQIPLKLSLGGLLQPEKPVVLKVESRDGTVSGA
procedure text: Inhibition of CYP3A4 in human liver microsomes at 10 uM using ketoconazole as […] preincubated for 5 mins followed by NADPH addition measured after 20 mins by LC-MS/MS analysis
Type: ADME
measured property: inhibition (INH)

CNC(=O)c1ccc(-c2cnc3ncn(C(C)c4cc5cccnc5cc4F)c3n2)cc1F (centres undefined) ... Active
C[C@@H](c1cc2cccnc2cc1F)n1cnc2ncc(-c3ccc(C(N)=O)c(F)c3)nc21 ... Active
CC(c1c(F)cc2ncccc2c1F)n1cnc2ncc(-c3ccncc3)nc21 (centres undefined) ... Active
